Values were extracted from patent US7923465B2.

RECORDED METRIC: melting point

Here are 6 compounds together with their reported answers.
[
  {
    "COMPOUND": "O=C(NN1CCCCC1)c1nn(-c2ccc(Br)cc2)c2c1C1CCC2C1 (centres unmarked) [Example 274]",
    "melting point": "173 °C"
  },
  {
    "COMPOUND": "O=C(NCc1ccc(Cl)cc1)c1nn(-c2ccc(Cl)cc2Cl)c2c1C1CCC2C1 (centres unmarked) [Example 250]",
    "melting point": "139 to 142 °C"
  },
  {
    "COMPOUND": "Cc1ccc(-n2nc(C(=O)NNc3ccc(Cl)cc3Cl)c3c2C2CC4CC(CC3C4)C2)cc1 [Example 161]",
    "melting point": "208 to 215 °C"
  },
  {
    "COMPOUND": "CC(C)(NC(=O)c1nn(-c2ccc(F)cc2F)c2c1C1CC3CC(C1)CC2C3)c1ccccc1Cl [Example 153]",
    "melting point": "145 to 147 °C"
  },
  {
    "COMPOUND": "CC12CCC(C1)C(C)(C)C2NC(=O)c1nn(-c2ccc(Cl)cc2Cl)c2c1C1CCC2C1 (centres unmarked) [Example 241]",
    "melting point": "156 to 159 °C"
  },
  {
    "COMPOUND": "O=C(NNc1ccccc1F)c1nn(-c2ccc(F)cc2F)c2c1C1CCC2C1 (centres unmarked) [Example 288]",
    "melting point": "172 to 175 °C"
  }
]

Report melting point for every entry below.
1. O=C(NNc1ccccc1)c1n[nH]c2c1C1(c3ccccc3)CCC2C1 (centres unmarked) [Example 204]
2. CN(NC(=O)c1nn(-c2ccc(Cl)cc2)c2c1C1CCC2C1)C1CCCCC1 (centres unmarked) [Example 213]
3. CC12CCC(C1)C(C)(C)C2NC(=O)c1nn(-c2ccc(F)cc2)c2c1C1CC3CC(C1)CC2C3 (centres unmarked) [Example 159]
4. O=C(NNc1ccc(Cl)cc1Cl)c1nn(-c2ccccc2Cl)c2c1C1CC3CC(C1)CC2C3 [Example 181]
5. O=C(NNc1ccccc1)c1nn(-c2ccc(Cl)cc2)c2c1C1CCC2C1 (centres unmarked) [Example 228]
6. O=C(NNc1ccccc1)c1nn(-c2ccc(Br)cc2)c2c1C1CCC2C1 (centres unmarked) [Example 277]

### Response
189 °C
62 °C
139 to 141 °C
233 to 240 °C
138 to 141 °C
138 °C

Report melting point for every entry below.
1. O=C(NNc1ccccc1Cl)c1nn(-c2ccc(Cl)cc2)c2c1C1CC3CC(C1)CC2C3 [Example 123]
2. O=C(NCc1ccc(F)cc1F)c1nn(-c2ccc(Cl)cc2Cl)c2c1C1CCC2C1 (centres unmarked) [Example 247]

### Response
1: 155 °C; 2: 73 to 76 °C

Report melting point for every entry below.
1. O=C(NCc1ccccc1Br)c1nn(-c2ccc(Cl)cc2)c2c1C1CCC2C1 (centres unmarked) [Example 224]
2. CC[C@H](NC(=O)c1nn(-c2ccc(F)cc2F)c2c1C1CCC2C1)c1ccccc1 (some centres unmarked) [Example 300]
3. O=C(NCc1ccc(F)cc1)c1nn(-c2ccc(Cl)cc2Cl)c2c1C1CCC2C1 (centres unmarked) [Example 246]

### Response
141 to 142 °C
100 to 103 °C
106 to 108 °C
